Data credit: the supplement of paper PMC9112550

Test system: Escherichia coli TOP10
Measurement notes: shrunken log2 fold change of peptide-encoding DNA abundance (4.5 h post-induction vs induction); higher = less antimicrobial activity (less host growth inhibition)
Condition notes: time post-induction: 4.5 h; library: site-saturation at positions 5, 18, 19, 20
Could you label it TRUE if measured shrunken log2 fold change is 0.04 or higher, and FALSE otherwise?

>>> df
                   sequence         target_of_assay  discrete_label
 0  RRIRGRPPRLPRPRPRPQRDPRP  Escherichia coli TOP10            TRUE
 1  RRIRPRPPRLPRPRPRPPNRPRP  Escherichia coli TOP10            TRUE
 2  RRIRHRPPRLPRPRPRPPVQPRP  Escherichia coli TOP10           FALSE
 3  RRIRIRPPRLPRPRPRPKDPPRP  Escherichia coli TOP10           FALSE
 4  RRIRERPPRLPRPRPRPGYKPRP  Escherichia coli TOP10           FALSE
 5  RRIRDRPPRLPRPRPRPYMNPRP  Escherichia coli TOP10           FALSE
 6  RRIRGRPPRLPRPRPRPKNYPRP  Escherichia coli TOP10            TRUE
 7  RRIRERPPRLPRPRPRPQIGPRP  Escherichia coli TOP10           FALSE
 8  RRIRQRPPRLPRPRPRPATQPRP  Escherichia coli TOP10            TRUE
 9  RRIRERPPRLPRPRPRPKIVPRP  Escherichia coli TOP10           FALSE
10  RRIRFRPPRLPRPRPRPLKPPRP  Escherichia coli TOP10           FALSE
11  RRIRFRPPRLPRPRPRPQHDPRP  Escherichia coli TOP10           FALSE
12  RRIRFRPPRLPRPRPRPTMPPRP  Escherichia coli TOP10            TRUE
13  RRIRNRPPRLPRPRPRPPSSPRP  Escherichia coli TOP10           FALSE

###

Test system: Escherichia coli TOP10
Measurement notes: shrunken log2 fold change of peptide-encoding DNA abundance (4.5 h post-induction vs induction); higher = less antimicrobial activity (less host growth inhibition)
Condition notes: time post-induction: 4.5 h; library: site-saturation at positions 5, 18, 19, 20
Could you label it Condition met if measured shrunken log2 fold change is 0.07 or higher, and Condition not met otherwise?

>>> print(df.to_string())
                   sequence     discrete_label
 0  RRIRQRPPRLPRPRPRPRSAPRP      Condition met
 1  RRIRVRPPRLPRPRPRPLPTPRP      Condition met
 2  RRIRGRPPRLPRPRPRPFPHPRP      Condition met
 3  RRIRTRPPRLPRPRPRPMRGPRP  Condition not met
 4  RRIRGRPPRLPRPRPRPYDRPRP      Condition met
 5  RRIRHRPPRLPRPRPRPHANPRP  Condition not met
 6  RRIRWRPPRLPRPRPRPYQVPRP  Condition not met
 7  RRIRERPPRLPRPRPRPGWIPRP  Condition not met
 8  RRIRHRPPRLPRPRPRPVNTPRP  Condition not met
 9  RRIRSRPPRLPRPRPRPQFDPRP  Condition not met
10  RRIRGRPPRLPRPRPRPQFDPRP      Condition met
11  RRIRTRPPRLPRPRPRPCEMPRP  Condition not met
12  RRIRRRPPRLPRPRPRPVPYPRP  Condition not met
13  RRIRTRPPRLPRPRPRPFYVPRP  Condition not met
14  RRIRQRPPRLPRPRPRPQRAPRP      Condition met
15  RRIRMRPPRLPRPRPRPYWEPRP  Condition not met
16  RRIRCRPPRLPRPRPRPEHWPRP      Condition met
17  RRIRNRPPRLPRPRPRPVAEPRP      Condition met
18  RRIRWRPPRLPRPRPRPCMGPRP  Condition not met
19  RRIRKRPPRLPRPRPRPKIRPRP      Condition met
20  RRIRYRPPRLPRPRPRPNQSPRP  Condition not met
21  RRIRQRPPRLPRPRPRPHPQPRP      Condition met
22  RRIRCRPPRLPRPRPRPRVYPRP  Condition not met
23  RRIRYRPPRLPRPRPRPISMPRP  Condition not met
24  RRIRARPPRLPRPRPRPTMYPRP  Condition not met
25  RRIRGRPPRLPRPRPRPAIIPRP      Condition met
26  RRIRERPPRLPRPRPRPPQPPRP      Condition met
27  RRIRTRPPRLPRPRPRPVNMPRP  Condition not met
28  RRIRTRPPRLPRPRPRPWVRPRP      Condition met
29  RRIRFRPPRLPRPRPRPKASPRP      Condition met
30  RRIRIRPPRLPRPRPRPHPIPRP  Condition not met
31  RRIRGRPPRLPRPRPRPSELPRP      Condition met

###

Tested on: Escherichia coli TOP10;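 further: peptides expressed intracellularly from a pBAD plasmid library in pooled LB shake-flask culture, induced with 0.3% L-arabinose, DNA abundance read by NGS, three biological replicates, DESeq2 with apeglm shrinkage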
Measurement notes: shrunken log2 fold change of peptide-encoding DNA abundance (4.5 h post-induction vs induction); higher = less antimicrobial activity (less host growth inhibition)
Condition notes: time post-induction: 4.5 h; library: site-saturation at positions 5, 18, 19, 20
Recorded endpoint: shrunken log2 fold change

>>> df
                   sequence  quantitative_result
 0  RRIRWRPPRLPRPRPRPDNFPRP              -0.0334
 1  RRIRCRPPRLPRPRPRPECVPRP                0.588
 2  RRIRCRPPRLPRPRPRPFNDPRP               0.0223
 3  RRIRGRPPRLPRPRPRPDVTPRP                 1.31
 4  RRIRPRPPRLPRPRPRPWEVPRP              -0.0677
 5  RRIRSRPPRLPRPRPRPGLGPRP                0.485
 6  RRIRSRPPRLPRPRPRPIVEPRP                 1.56
 7  RRIRERPPRLPRPRPRPCGFPRP               -0.303
 8  RRIRLRPPRLPRPRPRPCFPPRP               -0.206
 9  RRIRFRPPRLPRPRPRPPWVPRP                0.401
10  RRIRARPPRLPRPRPRPAWLPRP                0.597
11  RRIRCRPPRLPRPRPRPRCEPRP               0.0872
12  RRIRVRPPRLPRPRPRPSCAPRP                -0.16
13  RRIRLRPPRLPRPRPRPMTKPRP               0.0751
14  RRIRRRPPRLPRPRPRPCLTPRP               0.0744
15  RRIRIRPPRLPRPRPRPYINPRP                -1.08
16  RRIRCRPPRLPRPRPRPQMCPRP               -0.157
17  RRIRTRPPRLPRPRPRPTMHPRP               0.0843
18  RRIRFRPPRLPRPRPRPSSIPRP               -0.945
19  RRIRGRPPRLPRPRPRPVRDPRP                0.401
20  RRIRKRPPRLPRPRPRPPTNPRP                0.654
21  RRIRIRPPRLPRPRPRPMMQPRP              -0.0907
22  RRIRCRPPRLPRPRPRPAACPRP                0.202
23  RRIRQRPPRLPRPRPRPPVTPRP                0.199
24  RRIRGRPPRLPRPRPRPHNCPRP              -0.0265
25  RRIRTRPPRLPRPRPRPMDTPRP               0.0257
26  RRIRVRPPRLPRPRPRPDPLPRP               -0.231
27  RRIRQRPPRLPRPRPRPHISPRP               -0.312
28  RRIRRRPPRLPRPRPRPRWQPRP                0.636
29  RRIRHRPPRLPRPRPRPRTAPRP                0.264
30  RRIRKRPPRLPRPRPRPRINPRP               0.0244
31  RRIRARPPRLPRPRPRPAYPPRP                0.106
32  RRIRNRPPRLPRPRPRPRWYPRP               -0.194
33  RRIRVRPPRLPRPRPRPPINPRP               0.0484
34  RRIRFRPPRLPRPRPRPGTQPRP              -0.0219
35  RRIRERPPRLPRPRPRPDCSPRP               -0.148
36  RRIRSRPPRLPRPRPRPCYCPRP               -0.215
37  RRIRHRPPRLPRPRPRPTPTPRP                0.138
38  RRIRVRPPRLPRPRPRPQARPRP               -0.109
39  RRIRLRPPRLPRPRPRPIYAPRP                0.111
40  RRIRDRPPRLPRPRPRPRLMPRP                0.163
41  RRIRDRPPRLPRPRPRPFVAPRP               0.0541
42  RRIRMRPPRLPRPRPRPVCMPRP                0.392
43  RRIRFRPPRLPRPRPRPIPCPRP               -0.256
44  RRIRPRPPRLPRPRPRPMNMPRP               -0.668
45  RRIRSRPPRLPRPRPRPCNNPRP               -0.332
46  RRIRARPPRLPRPRPRPWDHPRP             -0.00959
47  RRIRSRPPRLPRPRPRPHHMPRP                -1.11
48  RRIRARPPRLPRPRPRPNMVPRP               -0.175
49  RRIRPRPPRLPRPRPRPTHSPRP                0.185
50  RRIRCRPPRLPRPRPRPDYQPRP               -0.447
51  RRIRLRPPRLPRPRPRPAKGPRP             -0.00764
52  RRIRMRPPRLPRPRPRPNSFPRP               -0.298
53  RRIRRRPPRLPRPRPRPNCEPRP                0.227
54  RRIRDRPPRLPRPRPRPRVVPRP                 0.11
55  RRIRQRPPRLPRPRPRPRGNPRP                0.106
56  RRIRGRPPRLPRPRPRPEVPPRP                0.434
57  RRIRDRPPRLPRPRPRPDWCPRP                0.163
58  RRIRSRPPRLPRPRPRPYHYPRP               -0.527
59  RRIRLRPPRLPRPRPRPPDFPRP              -0.0501
60  RRIRYRPPRLPRPRPRPAMFPRP               -0.229
61  RRIRHRPPRLPRPRPRPPRTPRP                 1.03
62  RRIRRRPPRLPRPRPRPGPKPRP                0.255
